Each item that follows carries a reported apparent KD of MS2 coat protein.
System: MS2 coat protein
Test: apparent KD of MS2 coat protein; designed switch direction (-1 OFF switch, 1 ON switch): -1; higher = weaker reporter binding
Conditions: input ligand: microRNA oligo, concentration not stated
OBSERVATION TYPE: apparent KD of MS2 coat protein

>  <POLYMER SEQUENCE>
UAUAUAUAGUAAGGAUAUGUAAUUAAUUUAUAAACAGAAGGUACUGACAUGAGGAUCACCCAUGUUUUAGUGUGGGCAUGUAGA [JMF's solution 35] (Eterna round: R96, puzzle: Exclusion NG 1)

>  <RESULT>
71.6 nM

$$$$
>  <POLYMER SEQUENCE>
UAAGCUCUGUCAGGAUAUCCCUGUAAACGCAACGGAGAAGGGACAUGAGGAUCACCCAUGUGCGGGCCCAACGCGCUUGGGUCC [Gelaisve] (Eterna round: R96, puzzle: Exclusion NG 1)

>  <RESULT>
20.6 nM

$$$$
>  <POLYMER SEQUENCE>
CCCUCACAUGAGGAUCACCCAUGUCAGGAUAUUCAAAGCGCAAAUGCGCCAAAUGCAGGAAGAAGGGACGUGCC [Bisoar] (Eterna round: R96, puzzle: Exclusion 1)

>  <RESULT>
10.3 nM

$$$$
>  <POLYMER SEQUENCE>
GUCAGCUCGUGAGGAUAUACAUCACUGCUUCGGCAGUGUAUUAAGAUCACAUGAGGAUCACCCAUGUAGAAGGUACGAGCUGAU [ENG2/2-C2] (Eterna round: R96, puzzle: Exclusion NG 2)

>  <RESULT>
17.6 nM

$$$$
>  <POLYMER SEQUENCE>
CAUUAUUAUCGAGGAUAUCGUAUUGAGAUACUAUGAGAAGGCGGGAUAAACAUGAGGAUCACCCAUGUGAGCCGGAUGCUUGUG [Ex NG1 #36] (Eterna round: R96, puzzle: Exclusion NG 1)

>  <RESULT>
13.5 nM

$$$$
